molecular target: Cereblon/Casein kinase I alpha (Homo sapiens) (UniProt P48729+Q96SW2); assay: PROTAC activity at CRBN/Hibit-fused CK1 alpha in human MV4-11 cells assessed as degradation of CK1-alpha incubated for 6 hrs by Nano-Glo HiBiT assay relative to control; assay type: cell-based
Sequence (P48729 2-337 limits assumed): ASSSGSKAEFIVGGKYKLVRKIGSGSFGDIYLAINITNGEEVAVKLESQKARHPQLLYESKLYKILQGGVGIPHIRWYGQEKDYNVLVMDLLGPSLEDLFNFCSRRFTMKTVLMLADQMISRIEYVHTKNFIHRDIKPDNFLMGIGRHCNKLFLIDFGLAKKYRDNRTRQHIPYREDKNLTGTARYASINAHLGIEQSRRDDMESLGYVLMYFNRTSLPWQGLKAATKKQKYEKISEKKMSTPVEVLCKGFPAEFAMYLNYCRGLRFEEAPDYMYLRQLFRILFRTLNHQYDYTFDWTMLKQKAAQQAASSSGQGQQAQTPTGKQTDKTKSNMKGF
Sequence (Q96SW2 whole entry partner, the tested form may be a part): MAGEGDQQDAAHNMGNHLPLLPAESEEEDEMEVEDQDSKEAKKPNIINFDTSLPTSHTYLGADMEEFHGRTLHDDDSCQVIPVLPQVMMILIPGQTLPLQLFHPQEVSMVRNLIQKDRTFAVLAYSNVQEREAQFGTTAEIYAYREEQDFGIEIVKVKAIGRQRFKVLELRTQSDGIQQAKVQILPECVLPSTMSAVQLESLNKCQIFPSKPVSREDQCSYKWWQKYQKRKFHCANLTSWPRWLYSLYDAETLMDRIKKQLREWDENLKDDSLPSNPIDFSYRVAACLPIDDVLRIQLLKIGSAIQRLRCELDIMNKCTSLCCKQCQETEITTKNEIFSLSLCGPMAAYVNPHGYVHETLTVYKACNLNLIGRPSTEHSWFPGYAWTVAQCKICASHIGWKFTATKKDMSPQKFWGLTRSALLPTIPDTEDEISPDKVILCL
This section presents compounds with their documented Emax values.
Supply the numeric figure in %, leaving out any unit text.

Ask: Given O=C(CCOCCOCCOCCOCCN1CCC(F)(Cn2cnc(-c3ccc(F)cn3)c2-c2ccnc3[nH]ccc23)CC1)NCCNc1cccc2c1C(=O)N(C1CCC(=O)NC1=O)C2=O (stereo unspecified) , state its recorded Emax.
Reply: 11.3

====

This section presents molecules with their documented Emax values.
target: von Hippel-Lindau disease tumor suppressor/Casein kinase I isoform delta (Homo sapiens, UniProt P48730+P40337); assay: PROTAC activity at VHL/full length N-terminal Nano-luc fused CK1 delta (unknown origin) transfected in HEK293T cells incubated for 2 hrs followed by substrate addition by NanoBRET target engagement assay; format: cell-based
Sequence (P40337 whole entry, looked up, the tested form may be a part, canonical isoform): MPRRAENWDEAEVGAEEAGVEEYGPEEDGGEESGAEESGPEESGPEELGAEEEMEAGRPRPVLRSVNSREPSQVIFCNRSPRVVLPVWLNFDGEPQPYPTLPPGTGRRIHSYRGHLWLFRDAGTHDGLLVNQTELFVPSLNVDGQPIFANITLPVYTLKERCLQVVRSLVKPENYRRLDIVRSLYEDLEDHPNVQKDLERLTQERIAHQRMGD
Sequence (P48730 whole entry, looked up, the tested form may be a part, canonical isoform): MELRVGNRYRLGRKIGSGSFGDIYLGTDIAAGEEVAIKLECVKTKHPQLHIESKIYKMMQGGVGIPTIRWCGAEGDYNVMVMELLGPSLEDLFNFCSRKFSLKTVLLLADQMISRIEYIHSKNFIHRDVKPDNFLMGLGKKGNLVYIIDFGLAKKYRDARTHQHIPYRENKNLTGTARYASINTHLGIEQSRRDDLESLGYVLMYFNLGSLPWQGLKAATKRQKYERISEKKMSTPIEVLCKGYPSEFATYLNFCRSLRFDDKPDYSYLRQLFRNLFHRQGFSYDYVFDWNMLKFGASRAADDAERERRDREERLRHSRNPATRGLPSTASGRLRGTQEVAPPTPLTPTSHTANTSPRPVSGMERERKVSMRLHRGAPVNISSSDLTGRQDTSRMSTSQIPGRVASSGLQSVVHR
Supply the numeric figure in %, leaving out any unit text.

1) Cc1ncsc1-c1ccc(CNC(=O)[C@@H]2C[C@@H](O)CN2C(=O)[C@@H](NC(=O)CCOCCOCCN2CCC(F)(Cn3cnc(-c4ccc(F)cn4)c3-c3ccnc4[nH]ccc34)CC2)C(C)(C)C)cc1: 1.8
2) Cc1ncsc1-c1ccc(CNC(=O)[C@@H]2C[C@@H](O)CN2C(=O)[C@@H](NC(=O)CC2CCN(C(=O)CCOCCOCCOCCN3CCC(F)(Cn4cnc(-c5ccc(F)cn5)c4-c4ccnc5[nH]ccc45)CC3)CC2)C(C)(C)C)cc1: 3.2

Ask: Given Cc1ncsc1-c1ccc(CNC(=O)[C@H]2C[C@H](O)CN2C(=O)[C@H](NC(=O)CCCCCCC(=O)N2CCC(F)(Cn3cnc(-c4ccc(F)cn4)c3-c3ccnc4[nH]ccc34)CC2)C(C)(C)C)cc1 , state its recorded Emax.
Reply: 3.2

Ask: Okay, and Cc1ncsc1-c1ccc(CNC(=O)[C@@H]2C[C@H](O)CN2C(=O)[C@@H](NC(=O)CCCCCCC(=O)N2CCC(F)(Cn3cnc(-c4ccc(F)cn4)c3-c3ccnc4[nH]ccc34)CC2)C(C)(C)C)cc1 ?
Reply: 2.4

Ask: Okay, and Cc1ncsc1-c1ccc(CNC(=O)[C@@H]2C[C@@H](O)CN2C(=O)[C@@H](NC(=O)CC2CN(C(=O)CCOCCOCCOCCN3CCC(F)(Cn4cnc(-c5ccc(F)cn5)c4-c4ccnc5[nH]ccc45)CC3)C2)C(C)(C)C)cc1 ?
Reply: 6.4
